system: MEK phosphorylation; experiment: Western MEK cell-based phosphorylation assay, MIA PaCa-2; settings: Homo sapiens
pIC50: −log10 of the molar value.
For each entry below, report its pIC50 value.

input: So what does the record say about pIC50 for CO[C@H]1CCC(Nc2nc(-c3nccn3C)nc3sc(-c4ccn(C)n4)c(-c4ccccc4)c23)C1 (some centres unmarked) [drawing 478] ?
output: < 6.00

input: What measured pIC50 goes with COCCNc1nc(-c2nccn2C)nc2sc(-c3cccc(OC)c3Cl)c(-c3ccccc3)c12 [drawing 476] ?
output: 6.00 to 6.12

----------
biological target: KRas G12D mutant (Homo sapiens, UniProt P01116, G12D); construct: fused on or other part: His tag, used for capture on nickel-coated plates; test: Ras GTP binding domain inhibition assay (Cy3-GTP/Cy5-GTP competition); details: at 20 μM, without SOS; read-out: KRas G12D mutant: % inh.
property-measured: inhibition at 20 µM

input: Entry under review: COc1cccc(Cn2ccnc2-c2nc(O)c3scc(-c4ccc(OCC(C)C)nc4)c3n2)c1 [drawing 1035] . Reported inhibition at 20 µM?
output: 51 to 75%

input: Entry under review: CC(C)COc1ccc(-c2csc3c(O)nc(-c4nccn4Cc4ccccn4)nc23)cn1 [drawing 1034] . Reported inhibition at 20 µM?
output: 76 to 100%

input: Can you share its inhibition at 20 µM? I mean this molecule: COC1CCN(c2nc(-c3nccn3C)nc3sc(-c4ccccc4CO)c(-c4ccccc4)c23)C1 (stereo not shown) [drawing 952]
output: 51 to 75%

input: Could you share which inhibition at 20 µM value was measured for COC1CCN(c2nc(-c3nccn3C)nc3sc(-c4ccncc4C)c(-c4ccccc4)c23)C1 (stereo not shown) [drawing 955] ?
output: 26 to 50%

input: Entry COC1CCC(Nc2nc(-c3nccn3C)nc3sc(-c4cccc5[nH]ncc45)c(C)c23)C1 (stereo not shown) [drawing 1030] : reported inhibition at 20 µM = ?
output: 26 to 50%

input: May I ask what inhibition at 20 µM has been recorded for COc1cccc(-c2sc3nc(-c4nccn4C)nc(NC4CCC(OC)C4)c3c2-c2ccccc2)c1F (stereo not shown) [drawing 1018] ?
output: 26 to 50%

input: Consider the molecule COc1nc(-c2ccccn2)nc2c(-c3ccccn3)csc12 [drawing 1048] and give its measured inhibition at 20 µM.
output: 26 to 50%

input: Suppose we examine the molecule COC(=O)c1nc(-c2nccn2C)nc(O)c1O [drawing 959] ; what inhibition at 20 µM value has been reported?
output: 51 to 75%

input: Can you look up the measured inhibition at 20 µM of Cn1ccnc1-c1nc(O)c(O)c(C(=O)NC2CCC2)n1 [drawing 960] for me?
output: 51 to 75%

input: I would be grateful if you could share the reported inhibition at 20 µM for COc1c(O)nc(-c2ccccn2)nc1Oc1cnn(C)c1 [drawing 938] .
output: 51 to 75%

input: Returns the measured inhibition at 20 µM for the input molecule. Input: CO[C@H]1CCC(Nc2nc(-c3nccn3C)nc3sc(-c4ccn(C)n4)c(-c4ccccc4)c23)C1 (stereo partly shown) [drawing 995]
output: 1 to 25%

input: What inhibition at 20 µM value was documented for this molecule, CO[C@H]1C[C@@H](Nc2nc(-c3nccn3C)nc3sc(C(=O)NC(C)C)c(-c4ccccc4)c23)C1 [drawing 1055] ?
output: 51 to 75%

input: Please report the recorded inhibition at 20 µM for COc1cccc(-c2sc3nc(-c4nccn4C)nc(N[C@@H]4CC[C@H](OC)C4)c3c2C)c1F [drawing 1029] .
output: 51 to 75%

input: Give the measured inhibition at 20 µM of CO[C@H]1C[C@@H](Nc2nc(-c3ncc[nH]3)nc3sc(-c4ccn(C)n4)c(-c4ccccc4)c23)C1 [drawing 1045] .
output: 26 to 50%

input: GET /values?readout=inhibition at 20 µM&item= CO[C@H]1CC[C@@H](Nc2nc(-c3nccn3C)nc3sc(C(=O)N4CCOCC4)c(-c4ccccc4)c23)C1 [drawing 1062]
output: 76 to 100%

input: Recorded inhibition at 20 µM for COCCNc1nc(-c2cn(C)cn2)nc2sc(-c3cc(OC)ccc3Cl)c(-c3ccc(OC)cc3)c12 [drawing 930] , please?
output: 26 to 50%

Attribution: patent US20250296938A1
